# Experiment Summary: Selectivity index, ratio of CC50 for MDCK cells to EC50 for antiviral activity against Influenza A virus H1N1 (A/Puerto Rico/8/34) infected in MDCK cells
# Type: toxicity, cell-based
# Experimental Context: dog, read-out: Ratio CC50/EC50
Property: selectivity ratio
Number only, please.

| Structure String | Property | Observed Value |
| --- | --- | --- |
| CC(=O)Nc1ccc(NC(=S)NC(=O)c2cccs2)cc1 | selectivity ratio | 21.4 |
| Cc1ccc(NC(=S)NC(=O)c2ccc(C(C)(C)C)cc2)c(C)c1 | selectivity ratio | 2220 |
| CC(=O)Nc1ccc(NC(=S)NC(=O)c2cc3ccccc3s2)cc1 | selectivity ratio | 334 |
| COc1ccc(C(=O)Nc2ccc(NC(=S)NC(=O)c3ccc(C(C)(C)C)cc3)cc2)cc1 | selectivity ratio | 24100 |
| Cc1ccc(NC(=S)NC(=O)c2ccc(C(C)(C)C)cc2)c(Br)c1 | selectivity ratio | 1280 |

Report selectivity ratio for CC(C)(C)c1ccc(C(=O)NC(=S)Nc2cc(Br)cc(Br)c2)cc1
111

Report selectivity ratio for CC(C)(C)c1ccc(C(=O)NC(=S)Nc2ccc(F)cc2F)cc1
133

* * *

# Experiment Summary: Selectivity index, ratio of CC50 for MDCK cells to EC50 for antiviral activity against Influenza A virus H1N1 (A/Puerto Rico/8/34) infected in MDCK cells
# Format: toxicity, cell-based
# Experimental Context: dog, read-out: Ratio CC50/EC50
Property: selectivity ratio

| Structure String | Property | Observed Value |
| --- | --- | --- |
| CC(C)(C)c1ccc(C(=O)NC(=O)Nc2ccccc2F)cc1 | selectivity ratio | > 667 |
| CC(C)(C)c1ccc(C(=O)NC(=S)Nc2ccc(NC(=O)c3ccc(C(C)(C)C)cc3)cc2)cc1 | selectivity ratio | > 120000 |

// moving on: another record for selectivity ratio
Report selectivity ratio for CC(C)(C)c1ccc(C(=O)NC(=S)Nc2ccc(NC(=O)c3ccc(Cl)cc3)cc2)cc1
> 33300

* * *

Readings of selectivity ratio for the listed molecules
# Experiment Summary: Selectivity index, ratio of CC50 for MDCK cells to EC50 for antiviral activity against Influenza A virus H1N1 (A/Puerto Rico/8/34) infected in MDCK cells
# Type: toxicity, cell-based
# Experimental Context: dog, read-out: Ratio CC50/EC50

// known answers, use as guide
| Structure String | selectivity ratio |
| --- | --- |
| CC(=O)Nc1ccc(NC(=S)NC(=O)c2ccc(C(C)(C)C)cc2)cc1 | 200 |
| CC(C)(C)c1ccc(C(=O)NC(=S)Nc2ccc(F)cc2)cc1 | > 164 |

// moving on: another record for selectivity ratio
Report selectivity ratio for O=C(NC(=S)Nc1ccccc1F)c1cc2ccccc2s1
> 10

* * *

# Experiment Summary: Cytotoxicity against MDCK cells by CCK-8 assay
# Format: toxicity, cell-based, Canis lupus familiaris
# Experimental Context: dog
Binned CC50; ranges: class 1 (below 70 µM), class 2 (70 µM to below 90 µM), class 3 (90 µM or more)

Worked examples follow.
| Structure String | Label |
| --- | --- |
| CC(C)(C)c1ccc(C(=O)NC(=S)Nc2ccccc2F)cc1 | class 3 |
| Cc1ncn(-c2ccc(NC(=S)NC(=O)c3ccc(C(C)(C)C)cc3)cc2)n1 | class 1 |
| COc1cccc(C(=O)Nc2ccc(NC(=S)NC(=O)c3ccc(C(C)(C)C)cc3)cc2)c1 | class 2 |

Would you mind sorting CCC(=O)Nc1ccc(NC(=S)NC(=O)c2ccc(C(C)(C)C)cc2)cc1 into the appropriate category?
class 2
